- System: N. gonorrhoeae FA1090
- protocol summary: Liquid broth MIC in Fastidious broth
- measurement parameters: Neisseria gonorrhoeae, FA1090, read-out: Minimum Inhibitory Concentration, FA 1090
Measured MIC accompanies every entry in the list below.
observed property: MIC

O=C(NCCCN1CCN(C(=O)NC(C(=O)N[C@H]2Cc3ccc(F)c(C(=O)O)c3OB2O)c2cc(F)c(O)c(O)c2Cl)C(=O)C1=O)c1ccncc1Cl (some centres unmarked); 1 to 2 µg/mL
O=C(NCCN1CCN(C(=O)N[C@@H](C(=O)N[C@H]2Cc3ccc(F)c(C(=O)O)c3OB2O)c2cc(F)c(O)c(O)c2Cl)C1=O)Nc1ccc(O)cc1; < 1 µg/mL
O=C(NCCCN1CCN(C(=O)NC(C(=O)N[C@H]2Cc3ccc(F)c(C(=O)O)c3OB2O)c2cc(F)c(O)c(O)c2Cl)C(=O)C1=O)c1ccc(O)c(F)c1F (some centres unmarked); 1 to 2 µg/mL
O=C(O)c1c(F)ccc2c1OB(O)[C@@H](NC(=O)C(NC(=O)N1CCN(Cc3ccc(O)c(O)c3Cl)C(=O)C1=O)c1cc(F)c(O)c(O)c1Cl)C2 (some centres unmarked); 16 to 32 µg/mL
O=C(NCCN1CCN(C(=O)NC(C(=O)N[C@H]2Cc3ccc(F)c(C(=O)O)c3OB2O)c2cc(F)c(O)c(O)c2Cl)C1=O)Nc1cccnc1 (some centres unmarked); 4 to 8 µg/mL
O=C(NC(C(=O)N[C@H]1Cc2cccc(C(=O)O)c2OB1O)c1ccc(P(=O)(O)O)cc1)c1ccc2ccnn2c1 (some centres unmarked); 4 to 8 µg/mL
O=C(NCCCN1CCN(C(=O)NC(C(=O)N[C@H]2Cc3ccc(F)c(C(=O)O)c3OB2O)c2cc(F)c(O)c(O)c2Cl)C1=O)c1cccnc1 (some centres unmarked); 4 to 8 µg/mL
O=C(NCCCS(=O)(=O)N1CCN(C(=O)NC(C(=O)N[C@H]2Cc3ccc(F)c(C(=O)O)c3OB2O)c2cc(F)c(O)c(O)c2Cl)C1=O)Nc1cccnc1 (some centres unmarked); 4 to 8 µg/mL
